The measurements presented in this section are drawn from the supplement of paper PMC13380429.

System: U2OS
Experiment: cell viability relative to DMSO; higher = less toxic
Conditions: 72 h; 100 nM
attribute-measured: cell viability (%)
Give bare numbers, in %.

Each of the following entries comes with a recorded value; kindly state cell viability for each.
1. O=c1c(-c2ccccc2)c1-c1ccccc1 [diphencyprone]
2. O=C(CCN1CCN(C(=O)OCc2cc(Cl)cc(Cl)c2)CC1)c1ccc2[nH]c(=O)oc2c1 [PF-8380]
3. C[C@]12N[C@H](Cc3ccccc31)c1ccccc12 [dizocilpine-(-)]

1: 103; 2: 97.9; 3: 97.4

----------
Tested on: Caco-2
Assay: cell viability relative to DMSO; higher = less toxic
Conditions: 72 h; 10 nM
Assignment: determine reported cell viability for the given compounds.
Numbers only, in %.

Example entries and their recorded answers appear below.
Consider the compound CC[C@@H](C(N)=O)N1CCCC1=O . State its measured cell viability.
91.6

Dear colleague, please send me the reported cell viability for O=C1OC2(c3ccc(O)cc3Oc3cc(O)ccc32)c2ccccc21 when you can.
116

Please report the measured cell viability for CCN1C[C@]2(OC(=O)c3ccccc3NC(C)=O)CC[C@H](OC)[C@@]34[C@@H]2C[C@@H]([C@@H]13)[C@@]1(O)C[C@H](OC)[C@H]2C[C@@H]4[C@]1(O)[C@H]2OC
99

Determine from records and report cell viability for CC(C)(C)n1nc(-c2cccc3ccccc23)c2c(N)ncnc21
93.1

As a next step, examine the compound that follows.
Determine its reported cell viability: O=C(Nc1ccc(Cl)nc1)c1ccc(Cl)cc1
90.2
